target: plasmin (Homo sapiens, UniProt P00747); construct: β-lactamase, plasmin, thrombin, trypsin, tryptase and urokinase; test: In vitro enzyme inhibitor assay, plasmin; format: biochemical; details: zinc removed, EDTA 1 mM, read-out: Inhibition, (Ki, μM ± S.D.) [Zn]removed
Sequence (P00747 581-810 limits assumed, species assumed): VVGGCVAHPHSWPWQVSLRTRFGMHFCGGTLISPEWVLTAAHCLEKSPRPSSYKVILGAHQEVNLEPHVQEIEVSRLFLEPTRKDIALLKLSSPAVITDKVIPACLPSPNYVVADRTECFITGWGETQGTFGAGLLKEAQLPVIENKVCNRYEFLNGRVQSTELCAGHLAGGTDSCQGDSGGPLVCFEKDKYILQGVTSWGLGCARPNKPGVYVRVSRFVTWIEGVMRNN
Sequence (P00747 97-580 partner limits assumed, species assumed): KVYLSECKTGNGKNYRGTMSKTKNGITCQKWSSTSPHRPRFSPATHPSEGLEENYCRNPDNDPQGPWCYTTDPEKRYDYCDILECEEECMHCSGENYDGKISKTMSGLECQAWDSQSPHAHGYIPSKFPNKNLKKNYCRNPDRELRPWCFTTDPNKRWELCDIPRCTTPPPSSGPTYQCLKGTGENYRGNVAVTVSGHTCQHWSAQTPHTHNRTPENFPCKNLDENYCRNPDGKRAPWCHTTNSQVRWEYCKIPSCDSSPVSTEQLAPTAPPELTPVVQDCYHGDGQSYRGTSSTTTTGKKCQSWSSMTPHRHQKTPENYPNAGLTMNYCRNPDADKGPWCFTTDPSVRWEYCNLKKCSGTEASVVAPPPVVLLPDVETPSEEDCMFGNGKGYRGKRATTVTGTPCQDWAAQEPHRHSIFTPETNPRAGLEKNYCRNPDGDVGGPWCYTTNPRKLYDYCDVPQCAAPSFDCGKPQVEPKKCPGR
For each record, write down the corresponding Ki.

> print(dat)
                                   compound  observationtype  testresult
1  N=C(N)c1ccc2[nH]c(Cc3nc4ccccc4[nH]3)nc2c1 [Compound 4]               Ki   > 1000 µM

Note: attention shifts to another entry.
Q: Identify the measured Ki of N=C(N)c1ccc2nc(-c3ccccn3)[nH]c2c1 [Compound 10, 5-amidino-2-pyrid-2-ylbenzimidazole] for plasmin (Homo sapiens, UniProt P00747).
A: > 1000 µM
